Values from ChEMBL document CHEMBL3112494

- target_system: Coagulation factor XII (Homo sapiens, UniProt P00748)
- Sequence (P00748 whole entry): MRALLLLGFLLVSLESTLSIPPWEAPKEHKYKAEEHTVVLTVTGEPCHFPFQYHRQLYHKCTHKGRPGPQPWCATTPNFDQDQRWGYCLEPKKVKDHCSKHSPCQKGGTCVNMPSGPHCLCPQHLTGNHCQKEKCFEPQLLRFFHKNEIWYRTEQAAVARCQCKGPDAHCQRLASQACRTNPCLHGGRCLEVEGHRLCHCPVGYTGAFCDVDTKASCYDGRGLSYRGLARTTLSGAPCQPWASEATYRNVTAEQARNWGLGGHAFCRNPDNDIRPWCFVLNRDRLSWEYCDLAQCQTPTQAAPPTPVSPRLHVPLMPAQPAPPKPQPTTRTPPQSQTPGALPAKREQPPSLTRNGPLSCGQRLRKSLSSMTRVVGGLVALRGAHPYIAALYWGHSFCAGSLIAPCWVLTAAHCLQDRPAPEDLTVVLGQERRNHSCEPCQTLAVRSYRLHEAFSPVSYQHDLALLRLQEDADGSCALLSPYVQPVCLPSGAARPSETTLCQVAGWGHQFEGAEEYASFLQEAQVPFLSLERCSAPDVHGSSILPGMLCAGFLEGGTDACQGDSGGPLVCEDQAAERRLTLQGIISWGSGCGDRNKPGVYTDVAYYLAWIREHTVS
property_name: Ki

## Task Form field: reported Ki of `CC(C)(C)[C@@H](O)C(=O)N1CCNC[C@H]1C(=O)NCc1cc(Cl)ccc1CN.O=C(O)C(F)(F)F`
## Result > 15 µM

---

- assay_notes: Volume of distribution in dog at 0.3 mg/kg, iv
- Type: ADME, organism-based, Canis lupus familiaris
- Design: dose 0.3 mg/kg, route intravenous
- protocol_conditions: in vivo
property_name: Vd
State the result as a value with its unit after it.

- CC(C)(C)[C@@H](O)C(=O)N1CCSC[C@H]1C(=O)NCc1cc(Cl)ccc1CN.O=C(O)C(F)(F)F: 2.3 L/kg

Query molecule follows.
## Task Form field: reported Vd of `CC(C)(C)[C@@H](O)C(=O)N1CCC[C@H]1C(=O)NCc1cc(Cl)ccc1CN.O=C(O)C(F)(F)F`
## Result 1.9 L/kg

---

half-life overview
- assay_notes: Half life in dog at 0.3 mg/kg, iv
- Type: ADME, organism-based, Canis lupus familiaris
- Design: dose 0.3 mg/kg, route intravenous
- protocol_conditions: in vivo
Respond numerically; units are h and should not be typed.

* CC(C)(C)[C@@H](O)C(=O)N1CCC[C@H]1C(=O)NCc1cc(Cl)ccc1CN.O=C(O)C(F)(F)F | 6.8

## Task Form field: reported half-life of `CC(C)(C)[C@@H](O)C(=O)N1CCSC[C@H]1C(=O)NCc1cc(Cl)ccc1CN.O=C(O)C(F)(F)F`
## Result 2.7
